biological target: T1, non-structural 3 protein (NS3) of the hepatitis C virus (HCV) (hepatitis C virus); assay: EIA, support-bound peptide, HCV NS3 control
T1 construct: Control antigen; also called HCV NS3
Could you mark each record fulfilled if its OD at 405 nm falls strictly under 0.03 OD, and not fulfilled if it equals or exceeds it?

Check out these entries, answers already filled in.
AVYYCARGKGTGFAYWGQGT (also called Peptide # 33) [AVYYCARGKGTGFAYWGQGT (SEQ. ID. No. 36)]    not fulfilled
NPYYGSTSYNQKFKGKATLT (also called Peptide # 29) [NPYYGSTSYNQKFKGKATLT (SEQ. ID. No. 32)]    fulfilled
GKSLEWIGNINPYYGSTSYN (also called Peptide # 28) [GKSLEWIGNINPYYGSTSYN (SEQ. ID. No. 31)]    fulfilled
VDKSSSTAYMQLNSLTSEDS (also called Peptide # 31) [VDKSSSTAYMQLNSLTSEDS (SEQ. ID. No. 34)]    not fulfilled
LIKYASNLESGVPARFSGSG [LIKYASNLESGVPARFSGSG (SEQ. ID. No. 20)]    fulfilled

Hi there! Is OD at 405 nm for CKASGYIFTSYDIDWVRQTP (also called Peptide # 3) [CKASGYIFTSYDIDWVRQTP (SEQ. ID. No. 6)] below 0.03 OD, do you know? not fulfilled

Could you please tell me whether OD at 405 nm recorded for YCQHSWEIPYTFGGGTKLEI (also called Peptide # 21) [YCQHSWEIPYTFGGGTKLEI (SEQ. ID. No. 24)] is less than 0.03 OD? not fulfilled

Lab log: compare recorded OD at 405 nm with 0.03 OD; is it strictly lower for SGTDFTLNIHPVEEEDTATY [SGTDFTLNIHPVEEEDTATY (SEQ. ID. No. 22)] ? not fulfilled

Check if OD at 405 nm falls below 0.03 OD for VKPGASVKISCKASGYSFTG (also called Peptide # 25) [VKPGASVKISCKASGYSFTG (SEQ. ID. No. 28)] . not fulfilled

OD at 405 nm strictly < 0.03 OD for this binder? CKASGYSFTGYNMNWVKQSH (also called Peptide # 26) [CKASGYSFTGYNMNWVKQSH (SEQ. ID. No. 29)] not fulfilled

Regarding IQLQQSGAELVKPGASVKIS (also called Peptide # 24) [IQLQQSGAELVKPGASVKIS (SEQ. ID. No. 27)] , kindly confirm whether its OD at 405 nm is beneath 0.03 OD. fulfilled
